Reference source for all entries: ChEMBL document CHEMBL4152228

# System: MCF7
# Protocol Details: Antiproliferative activity against human MCF7 cells after 72 hrs by MTT assay
# Type: functional, cell-based
# Stated Conditions: MCF7, 72 h
pIC50: −log10 of the molar value.
Measured pIC50 accompanies every entry in the list below.
Measured Quantity: pIC50

- Compound: "COc1ccc2nc3nc(NCc4ccc(CN5CCN(C)CC5)cc4)[nH]c(=O)c3nc2c1"
  Assayed Target: "MCF7"
  Measured Quantity: "pIC50"
  Observed: 7.40
- Compound: "CC(Nc1nc2nc3ccccc3nc2c(=O)[nH]1)c1ccccc1 (stereo not given)"
  Assayed Target: "MCF7"
  Measured Quantity: "pIC50"
  Observed: 6.80
- Compound: "Cc1ccc(NC(=O)c2ccc(CN3CCN(C)CC3)cc2)cc1Nc1nccc(-c2cccnc2)n1"
  Assayed Target: "MCF7"
  Measured Quantity: "pIC50"
  Observed: 5.15
- Compound: "COc1ccc2nc3nc(NC(C)c4ccccc4)[nH]c(=O)c3nc2c1 (stereo not given)"
  Assayed Target: "MCF7"
  Measured Quantity: "pIC50"
  Observed: 5.24
- Compound: "O=c1[nH]c(NCc2ccc(CN3CCOCC3)cc2)nc2nc3ccc(Cl)cc3nc12"
  Assayed Target: "MCF7"
  Measured Quantity: "pIC50"
  Observed: 6.70

---

# Tested on: MCF7
# Protocol Details: Antiproliferative activity against human MCF7 cells after 72 hrs by MTT assay
# Assay type: functional, cell-based
# Stated Conditions: MCF7, 72 h
pIC50: −log10 of the molar value.
Threshold check on pIC50: at or above 6 gives t, strictly below gives f.

- Compound: "COc1ccc2nc3nc(NCc4ccc(CN(C)C)cc4)[nH]c(=O)c3nc2c1"
  Assigned Class: "t"
- Compound: "CN1CCN(Cc2ccc(CNc3nc4nc5ccc(Cl)cc5cc4c(=O)[nH]3)cc2)CC1"
  Assigned Class: "t"
- Compound: "O=c1[nH]c(NCc2ccc(CN3CCCCC3)cc2)nc2nc3ccccc3cc12"
  Assigned Class: "f"
- Compound: "CS(=O)(=O)CCNCc1ccc(-c2ccc3ncnc(Nc4ccc(OCc5cccc(F)c5)c(Cl)c4)c3c2)o1 [LAPATINIB]"
  Assigned Class: "f"
- Compound: "Cc1ccc2nc3nc(NCCO)[nH]c(=O)c3cc2c1"
  Assigned Class: "t"
- Compound: "Cc1ccc2nc3nc(NCc4ccc(CN5CCCCC5)cc4)[nH]c(=O)c3cc2c1"
  Assigned Class: "f"
- Compound: "COc1ccc(CCN2CCC(Nc3nc4nc5ccc(C)cc5nc4c(=O)[nH]3)CC2)cc1"
  Assigned Class: "t"
- Compound: "COc1ccc2nc3nc(NCc4ccc(CN5CCOCC5)cc4)[nH]c(=O)c3cc2c1"
  Assigned Class: "f"
- Compound: "CSc1nc2nc3ccc(C)cc3cc2c(=O)[nH]1"
  Assigned Class: "f"
- Compound: "Cc1ccc2nc3nc(NCc4ccc(CN5CCN(C)CC5)cc4)[nH]c(=O)c3cc2c1"
  Assigned Class: "t"

---

# Assayed Target: Hepatocyte growth factor receptor (Homo sapiens) (UniProt P08581)
# Sequence (P08581 whole entry): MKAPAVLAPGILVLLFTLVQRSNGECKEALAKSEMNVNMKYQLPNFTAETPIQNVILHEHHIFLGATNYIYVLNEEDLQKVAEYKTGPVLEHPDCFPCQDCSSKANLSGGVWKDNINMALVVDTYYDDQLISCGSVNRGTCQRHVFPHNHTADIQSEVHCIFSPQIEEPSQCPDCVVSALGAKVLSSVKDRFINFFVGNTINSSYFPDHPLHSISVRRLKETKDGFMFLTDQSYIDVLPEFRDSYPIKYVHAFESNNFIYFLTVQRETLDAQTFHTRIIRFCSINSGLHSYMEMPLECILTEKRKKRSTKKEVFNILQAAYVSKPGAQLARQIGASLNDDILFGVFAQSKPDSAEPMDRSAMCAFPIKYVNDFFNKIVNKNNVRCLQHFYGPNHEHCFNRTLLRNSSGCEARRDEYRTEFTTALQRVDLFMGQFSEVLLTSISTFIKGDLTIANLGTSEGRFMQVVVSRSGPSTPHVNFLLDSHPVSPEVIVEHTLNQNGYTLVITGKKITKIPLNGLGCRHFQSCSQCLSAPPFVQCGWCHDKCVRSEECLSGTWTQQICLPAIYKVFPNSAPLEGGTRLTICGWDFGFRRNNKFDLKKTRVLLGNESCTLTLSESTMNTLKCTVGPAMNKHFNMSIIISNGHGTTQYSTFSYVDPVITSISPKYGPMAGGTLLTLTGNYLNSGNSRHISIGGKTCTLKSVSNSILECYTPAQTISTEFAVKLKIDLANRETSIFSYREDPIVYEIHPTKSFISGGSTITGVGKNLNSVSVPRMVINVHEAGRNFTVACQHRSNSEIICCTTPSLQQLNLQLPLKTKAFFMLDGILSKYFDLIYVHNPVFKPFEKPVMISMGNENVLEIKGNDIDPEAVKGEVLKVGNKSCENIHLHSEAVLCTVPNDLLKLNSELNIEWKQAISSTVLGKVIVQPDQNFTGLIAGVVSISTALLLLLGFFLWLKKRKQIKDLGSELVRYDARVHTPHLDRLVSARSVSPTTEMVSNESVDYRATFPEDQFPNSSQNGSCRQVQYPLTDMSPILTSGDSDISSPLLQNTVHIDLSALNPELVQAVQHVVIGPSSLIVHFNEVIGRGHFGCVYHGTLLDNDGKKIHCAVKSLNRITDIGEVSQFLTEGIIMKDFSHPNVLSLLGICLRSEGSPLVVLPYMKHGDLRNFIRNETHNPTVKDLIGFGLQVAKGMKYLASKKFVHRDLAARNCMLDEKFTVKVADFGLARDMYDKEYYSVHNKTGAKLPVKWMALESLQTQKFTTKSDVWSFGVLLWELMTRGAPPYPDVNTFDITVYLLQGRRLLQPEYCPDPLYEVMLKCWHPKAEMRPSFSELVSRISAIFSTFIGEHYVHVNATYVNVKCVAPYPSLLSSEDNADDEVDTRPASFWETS
# Protocol Details: Inhibition of MET (unknown origin) at 10 uM by [33P]-ATP radiometric assay
Measured inhibition accompanies every entry in the list below.

- Compound: "O=c1[nH]c(NCc2ccc(CN3CCCCC3)cc2)nc2nc3ccccc3cc12"
  inhibition / %: 0
- Compound: "COc1ccc2nc3nc(NCc4ccc(CN5CCN(C)CC5)cc4)[nH]c(=O)c3nc2c1"
  inhibition / %: 2
- Compound: "Cc1ccc(NC(=O)c2ccc(CN3CCN(C)CC3)cc2)cc1Nc1nccc(-c2cccnc2)n1"
  inhibition / %: 10
- Compound: "CN1CCN(Cc2ccc(CNc3nc4nc5ccc(Cl)cc5cc4c(=O)[nH]3)cc2)CC1"
  inhibition / %: 9
- Compound: "Cc1ccc2nc3nc(NCc4ccc(CN5CCN(C)CC5)cc4)[nH]c(=O)c3cc2c1"
  inhibition / %: 18
- Compound: "COc1ccc(CCN2CCC(Nc3nc4nc5ccc(C)cc5nc4c(=O)[nH]3)CC2)cc1"
  inhibition / %: 7

---

# Assayed Target: Calcium/calmodulin-dependent protein kinase type II subunit alpha (Homo sapiens)
# Protocol Details: Inhibition of CAMK2-alpha (unknown origin) at 10 uM by [33P]-ATP radiometric assay

- Compound: "COc1ccc(CCN2CCC(Nc3nc4nc5ccc(C)cc5nc4c(=O)[nH]3)CC2)cc1"
  inhibition, %: 4
- Compound: "COc1ccc2nc3nc(NCc4ccc(CN5CCN(C)CC5)cc4)[nH]c(=O)c3nc2c1"
  inhibition, %: 8
- Compound: "Cc1ccc2nc3nc(NCc4ccc(CN5CCN(C)CC5)cc4)[nH]c(=O)c3cc2c1"
  inhibition, %: 0
- Compound: "O=c1[nH]c(NCc2ccc(CN3CCCCC3)cc2)nc2nc3ccccc3cc12"
  inhibition, %: 1
- Compound: "CN1CCN(Cc2ccc(CNc3nc4nc5ccc(Cl)cc5cc4c(=O)[nH]3)cc2)CC1"
  inhibition, %: -6
- Compound: "Cc1ccc(NC(=O)c2ccc(CN3CCN(C)CC3)cc2)cc1Nc1nccc(-c2cccnc2)n1"
  inhibition, %: 1

---

# Test system: MCF7
# Protocol Details: Induction of apoptosis in human MCF7 cells assessed as late apoptotic cells at 5 uM after 72 hrs by annexin V-FITC/propidium iodide staining-based flow cytometric method (reference value: 2.6%)
# Assay type: functional
Measured Quantity: Activity (%)

- Molecule: "COc1ccc2nc3nc(NCc4ccc(CN(C)C)cc4)[nH]c(=O)c3nc2c1"
  Assayed Target: "MCF7"
  Observed: 7.9
- Molecule: "CC(Nc1nc2nc3ccccc3nc2c(=O)[nH]1)c1ccccc1 (stereo not given)"
  Assayed Target: "MCF7"
  Observed: 9.7
- Molecule: "O=c1[nH]c(NCc2ccc(CN3CCOCC3)cc2)nc2nc3ccc(Cl)cc3nc12"
  Assayed Target: "MCF7"
  Observed: 7.8
- Molecule: "COc1ccc(CCN2CCC(Nc3nc4nc5ccc(C)cc5nc4c(=O)[nH]3)CC2)cc1"
  Assayed Target: "MCF7"
  Observed: 14.1
- Molecule: "COc1ccc2nc3nc(NCc4ccc(CN5CCN(C)CC5)cc4)[nH]c(=O)c3nc2c1"
  Assayed Target: "MCF7"
  Observed: 4.1

---

# Test system: K562
# Protocol Details: Antiproliferative activity against human K562 cells after 72 hrs by MTT assay
# Assay type: functional, cell-based
# Stated Conditions: K562, 72 h
Measured IC50 accompanies every entry in the list below.

- Compound: "COc1ccc(CCN2CCC(Nc3nc4nc5ccc(C)cc5nc4c(=O)[nH]3)CC2)cc1"
  Assayed Target: "K562"
  IC50: "> 50 µM"
- Compound: "COc1ccc2nc3nc(NCc4ccc(CN5CCN(C)CC5)cc4)[nH]c(=O)c3nc2c1"
  Assayed Target: "K562"
  IC50: "> 50 µM"
- Compound: "CC(Nc1nc2nc3ccccc3nc2c(=O)[nH]1)c1ccccc1 (configuration not stated)"
  Assayed Target: "K562"
  IC50: "> 50 µM"
- Compound: "Cc1ccc2nc3nc(NCc4ccc(CN5CCN(C)CC5)cc4)[nH]c(=O)c3cc2c1"
  Assayed Target: "K562"
  IC50: "13.5 µM"
- Compound: "COc1ccc2nc3nc(NCc4ccc(CN(C)C)cc4)[nH]c(=O)c3nc2c1"
  Assayed Target: "K562"
  IC50: "> 50 µM"
- Compound: "O=c1[nH]c(NCc2ccc(CN3CCOCC3)cc2)nc2nc3ccc(Cl)cc3nc12"
  Assayed Target: "K562"
  IC50: "> 50 µM"
- Compound: "CN1CCN(Cc2ccc(CNc3nc4nc5ccc(Cl)cc5cc4c(=O)[nH]3)cc2)CC1"
  Assayed Target: "K562"
  IC50: "26.8 µM"
